System: P388 leukemia ip, CD2F1 mice, survival T/C
assay overview: NCI In Vivo Anticancer Drug Screen. Data for tumor model P388 Leukemia (intraperitoneal) in CD2F1 (CDF1) mice
applied conditions: endpoint: median survival time; dose: 50.0 mg/kg/injection; schedule: Q01DX005 (ip); vehicle: saline with Tween-80; higher = longer survival
Inconclusive results and toxic doses are left out.
In this section we review reported T/C values for a set of compounds.

Give the reported value of T/C for this record: "CCc1nc(N)nc(N)c1-c1ccc([N+](=O)[O-])cc1"
108 % of control

====

Catalogue of T/C values
Test system: P388 leukemia ip, CD2F1 mice, survival T/C
assay overview: NCI In Vivo Anticancer Drug Screen. Data for tumor model P388 Leukemia (intraperitoneal) in CD2F1 (CDF1) mice
applied conditions: endpoint: median survival time; dose: 200.0 mg/kg/injection; schedule: Q04DX002 (ip); vehicle: Klucel (hydroxypropylcellulose) (HPC); higher = longer survival
Toxic doses and inconclusive results are not listed.

Answered cases to consult:
>  <molecule>
O=C(O)/C(=N/NC(=O)c1ccccc1)c1ccccc1

>  <T/C>
98 % of control

$$$$
>  <molecule>
Cc1nc2ccccc2c(=O)n1N1C2CCCC21 (stereo not drawn)

>  <T/C>
100 % of control

$$$$
>  <molecule>
CCC(=O)c1c(C)oc2ccc(O)cc12

>  <T/C>
90 % of control

$$$$
>  <molecule>
CP12(OC(C(F)(F)F)(C(F)(F)F)c3ccccc31)OC(C(F)(F)F)(C(F)(F)F)c1ccccc12

>  <T/C>
101 % of control

$$$$
>  <molecule>
Cc1nnsc1-c1nnc2sc(C(F)(F)F)nn12

>  <T/C>
100 % of control

$$$$
>  <molecule>
COc1ccc(NC(=S)Nc2ccc(OCCCN3CCOCC3)cc2)cc1

>  <T/C>
94 % of control

$$$$
>  <molecule>
CCCCCCCCCCCCCCCCCC(=O)NC[n+]1ccccc1

>  <T/C>
91 % of control

$$$$

Here is another molecule to look at.
Entry "O=C(N/N=C/c1cc(Br)ccc1[O-])c1ccccc1O.O=C(N/N=C/c1cc(Br)ccc1[O-])c1ccccc1O.[Co+2]" needs its T/C filled in; supply it.
90 % of control

====

Here the recorded T/C is given for each entry.
Tested on: P388 leukemia ip, CD2F1 mice, survival T/C
assay overview: NCI In Vivo Anticancer Drug Screen. Data for tumor model P388 Leukemia (intraperitoneal) in CD2F1 (CDF1) mice
applied conditions: endpoint: median survival time; dose: 60.0 mg/kg/injection; schedule: Q01DX005 (ip); vehicle: saline with Tween-80; higher = longer survival
Procedure: The antitumor activity of compounds was measured in mice bearing transplantable tumors. Survival or tumor size were measured and the results are expressed as the measurement made in the treated group (T) divided by the measurement made in the vehicle treated control group (C). The tumor model used in this assay is P388 Leukemia (intraperitoneal) in CD2F1 (CDF1) mice
Inconclusive results and toxic doses are left out.

Worked set:
>  <compound>
NC(N)=NC(=O)COc1ccc(Cl)cc1Cl

>  <reading>
97 % of control

$$$$
>  <compound>
COc1cccc(NCNC2Nc3ccccc3N2)c1

>  <reading>
107 % of control

$$$$

Please supply the value of reported T/C for the item "O=C(CCN1C(=O)NC(c2ccccc2)(c2ccccc2)C1=O)NCCN1CCOCC1"
96 % of control

Read off the recorded T/C for CC1(C)NN=C([N+](=O)[O-])C1c1ccccc1 (centres undefined)
107 % of control
